Test system: L1210 leukemia ip in BDF1 mice, survival T/C
Experiment: NCI In Vivo Anticancer Drug Screen. Data for tumor model L1210 Leukemia (intraperitoneal) in B6D2F1 (BDF1) mice
Conditions: endpoint: mean survival time; dose: 200.0 mg/kg/injection; schedule: Q04DX003 (ip); vehicle: saline with Tween-80; higher = longer survival
Toxic doses and inconclusive results are not listed.
property: T/C

Record excerpt, results attached:
{"columns": ["compound", "experimentalSystem", "property", "result"],
 "data": [
  ["CCN(CC)c1ccc2c(c1)Cc1ccccc1-2", "L1210 leukemia ip in BDF1 mice, survival T/C", "T/C", "98 % of control"],
  ["CCCCNS(=O)(=O)c1ccc(NC(=O)c2ccc3ccccc3c2O)c([N+](=O)[O-])c1", "L1210 leukemia ip in BDF1 mice, survival T/C", "T/C", "88 % of control"],
  ["Cc1ccc2c(c1)SCc1c-2[nH]c2ccccc12", "L1210 leukemia ip in BDF1 mice, survival T/C", "T/C", "100 % of control"],
  ["NC(=Nc1ccc(N)cc1)C(N)=Nc1ccc(N)cc1", "L1210 leukemia ip in BDF1 mice, survival T/C", "T/C", "98 % of control"],
  ["NC1=C(Cl)C(=O)C(N)=C(Cl)C1=O", "L1210 leukemia ip in BDF1 mice, survival T/C", "T/C", "98 % of control"],
  ["NC(N)=Nc1ccc(C(=O)Oc2ccc([N+](=O)[O-])cc2)cc1", "L1210 leukemia ip in BDF1 mice, survival T/C", "T/C", "94 % of control"],
  ["C=CC1CC=CCC1 (stereo not drawn)", "L1210 leukemia ip in BDF1 mice, survival T/C", "T/C", "97 % of control"],
  ["Cc1ccc(NC(=O)c2ccc([N+](=O)[O-])cc2)c(C)c1", "L1210 leukemia ip in BDF1 mice, survival T/C", "T/C", "96 % of control"],
  ["O=C(O)c1ccc(Oc2nc3ccccc3s2)cc1", "L1210 leukemia ip in BDF1 mice, survival T/C", "T/C", "97 % of control"],
  ["[O-][N+](=C(c1ccccc1)c1ccccc1)c1ccccc1", "L1210 leukemia ip in BDF1 mice, survival T/C", "T/C", "93 % of control"]
]}

Kindly consider the entry below.
Kindly note the recorded T/C for `Cc1c(N)nc(Br)c2ccccc12` , which is 101 % of control

The reported measurements were obtained from PubChem BioAssay AID248.
